src = ChEMBL document CHEMBL3734745

Test system: RAW264.7
protocol.text: Cytotoxicity against mouse RAW264.7 cells assessed as cell viability at 100 uM by MTS assay
Format: cell-based
condition.details: raw264.7, 100 µM

{"compound": "CC1(C)c2ccccc2C(C)(C)N1O", "Activity": "Non-toxic"}
{"compound": "CC(COc1c(Cl)cccc1Cl)NCc1ccc2c(c1)C(C)(C)N(O)C2(C)C (stereo unspecified)", "Activity": "Non-toxic"}
{"compound": "CC(COc1c(Cl)cccc1Cl)NCc1ccc2c(c1)C(C)(C)NC2(C)C (stereo unspecified)", "Activity": "Non-toxic"}
{"compound": "CC1(C)c2ccccc2C(C)(C)N1[O]", "Activity": "Non-toxic"}
{"compound": "CC1(C)NC(C)(C)c2ccccc21", "Activity": "Non-toxic"}
{"compound": "CC(COc1c(Cl)cccc1Cl)NCc1ccc2c(c1)C(C)(C)N([O])C2(C)C (stereo unspecified)", "Activity": "Non-toxic"}
